The values you see were collected from the supplement of paper PMC13380429.

Entries annotated with measured cell viability
test system: Calu-3; assay: cell viability relative to DMSO; higher = less toxic; details: 72 h; 100 nM

{"COMPOUND": "O=C(O)C1CSCN1 (stereo not given) [timonacic]", "UNIT STRING": "%", "cell viability": 94.6}
{"COMPOUND": "Cc1ccc(-n2nc(C(C)(C)C)cc2NC(=O)Nc2ccc(OCCN3CCOCC3)c3ccccc23)cc1 [doramapimod]", "UNIT STRING": "%", "cell viability": 92.4}
{"COMPOUND": "CO[C@@H]1[C@H](N(C)C(=O)c2ccccc2)C[C@H]2O[C@]1(C)n1c3ccccc3c3c4c(c5c6ccccc6n2c5c31)C(=O)NC4 [midostaurin]", "UNIT STRING": "%", "cell viability": 102}
{"COMPOUND": "Cc1nccn1CCC(C(N)=O)(c1ccccc1)c1ccccc1 [imidafenacin]", "UNIT STRING": "%", "cell viability": 106}
{"COMPOUND": "CC/C(=C(/CC)c1ccc(OP(=O)(O)O)cc1)c1ccc(OP(=O)(O)O)cc1 [fosfestrol]", "UNIT STRING": "%", "cell viability": 92.5}

====

Parameter: cell viability. Scope: all listed entries.
tested on: U2OS; experiment: cell viability relative to DMSO; higher = less toxic; conditions: 72 h; 1000 nM

{"COMPOUND": "Fc1ccc(-c2cncc(CN3CCN(c4cccc5c4OCCO5)CC3)c2)cc1 [adoprazine]", "ASSAY TARGET": "U2OS", "UNIT STRING": "%", "cell viability": 104}
{"COMPOUND": "O=C(NCc1ccc(Oc2ccccc2)cc1)c1nc(-c2cc(Br)c(O)c(Br)c2)no1 [IOWH032]", "ASSAY TARGET": "U2OS", "UNIT STRING": "%", "cell viability": 94.5}
{"COMPOUND": "CCOC(=O)Nc1ccc(NCc2c(C)cc(C)cc2C)cc1N", "ASSAY TARGET": "U2OS", "UNIT STRING": "%", "cell viability": 103}
{"COMPOUND": "O=C(Nc1cc(C(F)(F)F)cc(C(F)(F)F)c1)c1cc(Cl)ccc1O [IKK-2-inhibitor-V]", "ASSAY TARGET": "U2OS", "UNIT STRING": "%", "cell viability": 82.9}
{"COMPOUND": "O=C(NCc1ccc(F)cc1)N1CCN2C(=O)OC(c3ccccc3)(c3ccccc3)[C@@H]2C1 (racemic) [SHA-68]", "ASSAY TARGET": "U2OS", "UNIT STRING": "%", "cell viability": 96.6}
{"COMPOUND": "O=C(Nc1cccnn1)N1CCC(=Cc2cccc(Oc3ccc(C(F)(F)F)cn3)c2)CC1", "ASSAY TARGET": "U2OS", "UNIT STRING": "%", "cell viability": 97.9}
{"COMPOUND": "N#CC1(c2ccc(NC(=O)c3cccnc3NCc3ccncc3)cc2)CCCC1 [apatinib]", "ASSAY TARGET": "U2OS", "UNIT STRING": "%", "cell viability": 99.2}
{"COMPOUND": "O=C1C2CC=CCC2C(=O)N1SC(Cl)(Cl)Cl (centres undefined) [captan]", "ASSAY TARGET": "U2OS", "UNIT STRING": "%", "cell viability": 96.1}
{"COMPOUND": "CC(C)(C)c1ccc(C(=O)CCCN2CCC(OC(c3ccccc3)c3ccccc3)CC2)cc1 [ebastine]", "ASSAY TARGET": "U2OS", "UNIT STRING": "%", "cell viability": 93.6}
